Tested on: SF-268 CNS
Assay: NCI tumour cell line growth inhibition, 48 h
measure: GI50

>>> assay_result("C=CCCC(=O)N1C=CC(=O)[C@H](O)[C@@H]1/C=C/c1ccccc1")
"7.03 µM"
>>> assay_result("Cc1nnc(-c2ccc(-c3nc4ccccc4o3)cc2)o1")
"28.6 µM"
>>> assay_result("c1ccc2nc(OCCN3CC3)ccc2c1")
"16 µM"
>>> assay_result("Cn1ccnc1C[N-]Cc1nccn1C.O=[N+]([O-])[O-].O=[N+]([O-])[O-].[Cu+2]")
"> 100 µM"

# next compound below
Just so you know, measured GI50 for Cn1ncc(-c2ccc3c(=O)[nH]nc(CN)c3c2)c1-c1c(F)cc2ccccc2c1C#N came out at 4.74 µM
